All values here come from PubChem BioAssay (NCATS).

Assay: Viability qHTS for spleen associated tyrosine kinase inhibitor (SYKi) naive MV4-11 cells (AID 1963823); further: nearly all actives have a fitted effect of over 40% in size
Details: MV4-11 AML viability, CellTiter-Glo luminescence, 72 h; series mostly up to 45 µM
Records with an inconclusive call do not appear. Active and inactive are the calls of the source. The call rests on the fitted dose curve; in most records, active means well fitted cell-killing curve with a large enough effect; inconclusive means small, poorly fitted or top-dose-only effect, or effect the other way; inactive means no such curve, though single readings can be large or run the other way.
Answer with one of the outcomes y = active, n = inactive

INSERT INTO measurements (compound, class) VALUES
  ('C=C1C(=O)O[C@H]2C[C@H](C)C(/C=C/C(C)=O)=CC[C@H]12', 'y'),
  ('Cc1ccc2c(c1)C=Cc1cc(C)ccc1C2c1cn(Cc2ccc(C(=O)Nc3nn[nH]n3)o2)c(=O)[nH]c1=S', 'n'),
  ('CC1=CC(=O)OC(C)(CC(C)(O)C(=O)O)C1 (stereo not drawn)', 'n'),
  ('COc1cc2c(cc1OC)/C(=C/c1ccc(O)cc1)C(=O)N2', 'y'),
  ('Nc1nnnn1-c1ccccc1', 'n');

Ask | Per the assay record, what outcome was assigned to CC1=CC(=O)CC(C)(C)C1(O)CCC(C)O (stereo not drawn) ?
Reply | n

Ask | Follow-up item: NC(=O)c1nc(F)c[nH]c1=O
Reply | n

Ask | Now the same for CC1CCC2C(C)(C)CC(C)(CO)C2(O)C1C(=O)O (stereo not drawn)
Reply | n

Ask | Also CC(O)COc1ccccc1 (stereo not drawn) , if possible.
Reply | n

Ask | Same question, Cc1ccc(C(=O)Nc2ccc(CN3CCN(C)CC3)c(C(F)(F)F)c2)cc1C#Cc1cnc2cccnn12 this time
Reply | n

Ask | Also need C[C@@H](O)[C@@H](C)Oc1nc(Nc2ccc(S(=N)(=O)C3CC3)cc2)ncc1C(F)(F)F (stereo partly drawn) , thanks.
Reply | y

Ask | And the next one, C=C1C(=O)OC2CC(C)C(CCC(C)=O)=CCC12 (stereo not drawn) ?
Reply | y

Ask | // same read-out, input: CCOC(=O)c1ccc(OC(=O)CCCCCN=C(N)N)cc1
Reply | n

Ask | Also need Brc1ccc([C@H]2CN3CCSC3=N2)cc1 , thanks.
Reply | n

Ask | What about Cc1nc2ccccc2c(-c2ccc3c4c(ccnc24)CCO3)c1[C@H](OC(C)(C)C)C(=O)O ?
Reply | n

---

Assay: Quantitative highthroughput screen to assess conditional lethalithy of P12 Ichikawa cells grown in Human Plasma-Like Medium with dialyzed fetal bovine serum (HPLM+ds) (AID 1963879); further: nearly all actives have a fitted effect of over 35% in size
Conditions: ATP luminescence, 48 h; viability; series mostly up to 45.8 µM
Records with an inconclusive call do not appear. Active and inactive are the calls of the source. The call rests on the fitted dose curve; in most records, active means well fitted cell-killing curve with a large enough effect; inconclusive means small, poorly fitted or top-dose-only effect; inactive means flat fitted curve, though single readings scatter.
Measured attribute: outcome

INSERT INTO assay_data (compound, measured_attribute, measured_result) VALUES
  ('COCCCOc1ccnc(CS(=O)c2nc3ccccc3[nH]2)c1C (stereo not drawn)', 'outcome', 'inactive'),
  ('CN(C)c1ccc(C2Nc3ccc4ccccc4c3C3=C2C(=O)CC(C)(C)C3)cc1Br (stereo not drawn)', 'outcome', 'inactive'),
  ('N[C@H](CSC(c1ccccc1)(c1ccccc1)c1ccccc1)C(=O)O', 'outcome', 'inactive');

---

Assay: Viability qHTS for spleen associated tyrosine kinase inhibitor (SYKi) drug resistant MV4-11 cells (AID 1963824); further: nearly all actives have a fitted effect of over 35% in size
Conditions: SYKi-resistant MV4-11 viability, CellTiter-Glo, 72 h; series mostly up to 45 µM
Records with an inconclusive call do not appear. Activity calls are given as the source filed them. The call rests on the fitted dose curve; in most records, active means well fitted cell-killing curve with a large enough effect; inconclusive means small, poorly fitted or top-dose-only effect, or effect the other way; inactive means no such curve, though single readings can be large or run the other way.
Your reply should match one of these outcome classes. 1 for active, 0 for inactive

A selection of reference data follows.
INSERT INTO assay_data (compound, class) VALUES
  ('CCN(CC)C(=O)N1CCN(C)CC1', 0),
  ('Cc1cc(Nc2nc(N[C@@H](C)c3ncc(F)cn3)ncc2Cl)n[nH]1', 1),
  ('Cc1ccc(C(=O)C(=O)O)cc1C', 0),
  ('C=C1C(=O)OC2CC3(C)C(O)C(=O)C=C(C)C3CC12 (stereo not drawn)', 1),
  ('COc1nc(OCc2cccc(-c3ccccc3)c2C)ccc1CNCCNC(C)=O', 1),
  ('CN(C)C(=O)NC1(c2ccccc2)CCN(CCC[C@]2(c3ccc(Cl)c(Cl)c3)CCCN(C(=O)c3ccccc3)C2)CC1', 1),
  ('CC(O)/C=C/C1(O)C(C)C(O[C@@H]2O[C@H](CO)[C@@H](O)[C@H](O)[C@H]2O)C(O)CC1(C)C (stereo partly drawn)', 0);

Now consider the entry below.
Ask | Write down the call the test reported for this compound. Item: CC(C)C[C@H](NC(=O)[C@@H](NC(=O)c1cccc(-c2ccccc2)n1)[C@@H](C)O)B(O)O
Reply | 1

---

Test: Quantitative highthroughput screen to assess conditional lethalithy of NOMO1 cells grown in Human Plasma-Like Medium with dialyzed fetal bovine serum (HPLM+ds) (AID 1963878); further: nearly all actives have a fitted effect of over 35% in size;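 on viability: 100% = DMSO wells and 0% = empty wells on each plate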
Conditions: NOMO1 AML cells in HPLM+ds, CellTiter-Glo viability, 48 h; series mostly up to 45.8 µM
Inconclusive results are not listed. Calls of active or inactive are those of the source. Calls come from the whole dose curve; as a rule, active = well fitted cell-killing curve with a large enough effect; inconclusive = small, poorly fitted or top-dose-only effect, or effect the other way; inactive = no such curve, though single readings can be large or run the other way.
Entry note: the call must match one of active, inactive

INSERT INTO measurements (molecule, class) VALUES
  ('CCCCC(=O)O[C@]1(C(=O)CO)[C@@H](C)C[C@H]2[C@@H]3CCC4=CC(=O)C=C[C@]4(C)[C@@]3(F)[C@@H](O)C[C@@]21C', 'inactive');

Ask | Give the logged outcome of this assay for the following molecule: Cc1cccc(Nc2nc(N[C@@H]3CCCC[C@H]3N)ncc2C(N)=O)c1
Reply | active

Ask | Note, next up: Cc1cnc(Nc2ccc(OCCN3CCCC3)cc2)nc1Nc1cccc(S(=O)(=O)NC(C)(C)C)c1
Reply | inactive

Ask | Next: CC=C1C2C=C(C)CC1(N)c1ccc(=O)[nH]c1C2 (stereo not drawn)
Reply | inactive

Ask | Same again, this time with CCN(c1ccccc1)c1cc(NC)[n+](C)c(C)n1
Reply | inactive

Ask | Repeat with CNC(=O)[C@H](CC1=CN=C2C=CCC=C12)NC(=O)[C@@H](CC(=O)NO)CC(C)C
Reply | active

Ask | And the next one, Cc1c(C(=O)Nc2ccc(N3C[C@@H](C)O[C@@H](C)C3)nc2)cccc1-c1ccc(OC(F)(F)F)cc1 ?
Reply | active

Ask | Then what about the molecule Cc1csc(NC(=O)c2sc3nc4c(c(C(F)(F)F)c3c2N)CCC4)n1 ?
Reply | inactive

Ask | Can you check Cc1cc([C@@H](C)Nc2ccccc2C(=O)O)c2nc(N3CCOCC3)cc(=O)n2c1 next?
Reply | active

---

Assay: Viability qHTS for spleen associated tyrosine kinase inhibitor (SYKi) drug resistant MV4-11 cells (AID 1963824); further: nearly all actives have a fitted effect of over 35% in size
Conditions: SYKi-resistant MV4-11 viability, CellTiter-Glo, 72 h; series mostly up to 45 µM
Inconclusive results are not listed. The source made the active and inactive calls. Calls come from the whole dose curve; as a rule, active = well fitted cell-killing curve with a large enough effect; inconclusive = small, poorly fitted or top-dose-only effect, or effect the other way; inactive = no such curve, though single readings can be large or run the other way.
# valid calls are active, inactive; nothing else

For orientation, consider the following solved cases.
INSERT INTO results (molecule, class) VALUES
  ('Oc1ccccc1C=NCc1ccccc1', 'inactive'),
  ('c1ccc(C(OC2CCN(CCCc3nn[nH]n3)CC2)c2ccccc2)cc1', 'inactive'),
  ('CN1C/C=C/CCOc2cccc(c2)-c2ccnc(n2)Nc2cccc(c2)C1', 'active'),
  ('CSc1ccc2c(c1)C(N1CCN(C)CC1)Cc1ccccc1S2 (configuration not stated)', 'active'),
  ('COC1OC(OC)C(O)(CCC2(C)C(C)CCC3(C)C2CC(O)C(O)C32CO2)C1O (configuration not stated)', 'inactive'),
  ('COc1cc2ncnc(Nc3cccc(Cl)c3F)c2cc1OC(=O)N1CCN(C)C[C@H]1C', 'active'),
  ('COc1cc(O)cc(C)c1C(=O)OC1C(CO)OC(OC2C(O)C(O)C(O)C(O)C2O)C(O)C1O (configuration not stated)', 'inactive'),
  ('CC1=C2CC(O)(C(C)(C)O)C(O[C@@H]3O[C@H](CO)[C@@H](O)[C@H](O)[C@H]3O)CC(C)C2CC1=O (some centres not stated)', 'inactive');

Ask | // outcome(item) with item = CCC(C)/C=C(C)/C=C/C1=CC2=C(Cl)C(=O)C(C)(OC(C)=O)C(=O)C2=CN1C1CCCCN(C(CCC(N)=O)C(=O)O)C1=O (configuration not stated)
Reply | inactive

---

Assay: Quantitative highthroughput screen to assess conditional lethalithy of SEM cells grown in RPMI1640 with dialyzed fetal bovine serum (RPMI+ds) (AID 1963884); further: nearly all actives have a fitted effect of over 35% in size;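 on viability: 100% = DMSO control wells and 0% = empty wells without cells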
Details: SEM B-ALL cells, RPMI+dialyzed FBS, CellTiter-Glo viability, 48 h; series mostly up to 45.8 µM
Inconclusive results are not listed. The source made the active and inactive calls. Calls come from the whole dose curve; as a rule, active = well fitted cell-killing curve with a large enough effect; inconclusive = small, poorly fitted or top-dose-only effect, or effect the other way; inactive = no such curve, though single readings can be large or run the other way.
Respond using exactly one of the listed classes: 1 = active, -1 = inactive

Use the examples below as a reference point.
INSERT INTO assay_data (molecule, class) VALUES
  ('OC[C@H]1OC(O)C[C@@H](O)[C@H]1O (some centres undefined)', -1),
  ('C=C1[C@H](n2cnc3c(=O)[nH]c(N)nc32)C[C@H](O)[C@H]1CO', 1),
  ('CC(C)[C@H](O)C(=O)N[C@@H](C)C(=O)N[C@@H]1C(=O)N(C)CCc2ccccc21', -1),
  ('Cc1ccc(NC(=O)C2(c3ccc4c(c3)OC(F)(F)O4)CC2)nc1-c1cccc(C(=O)O)c1', 1),
  ('CC(=O)c1c(C)c2cnc(Nc3ccc(N4CCNCC4)cn3)nc2n(C2CCCC2)c1=O', 1);

Ask | So what was the verdict on CN1CC[C@@H](c2c(O)cc(O)c3c(=O)cc(-c4ccccc4Cl)oc23)[C@@H](O)C1 in this test?
Reply | 1

Ask | How about this molecule: Cn1c(N2CCCCS2(=O)=O)nc(C(=O)NCc2ccc(F)cc2)c(O)c1=O
Reply | -1

Ask | Also check c1ccc2c(CCNc3ccc(Nc4ccncc4)cc3)c[nH]c2c1
Reply | 1

Ask | Now try CC[C@]12C=CCN3CC[C@@]4(c5cc([C@@]6(C(=O)OC)C[C@H]7C[C@@H](C(C)(F)F)CN(Cc8c6[nH]c6ccccc86)C7)c(OC)cc5N(C)[C@H]4[C@@](O)(C(=O)OC)[C@H]1OC(C)=O)[C@@H]32 .
Reply | 1

Ask | And the next one, CCN1CCC(n2cc(CNc3cc(Cl)c4ncc(C#N)c(Nc5ccc(F)c(Cl)c5)c4c3)nn2)CC1 ?
Reply | 1

Ask | Now this one: CC(=O)NC(C)c1ccc(Oc2ccc(OC(C)C)cc2)cc1 (centres undefined)
Reply | -1

Ask | How about this molecule: C=CC(=O)N1CCc2ccc(-n3c(=O)ccc4cnc5ccc(-c6cnn(C)c6)cc5c43)cc21
Reply | 1

Ask | Would you kindly repeat that for CCCCN(CCCC)CC(O)c1cc(Cl)cc2c1-c1ccc(Cl)cc1C2=Cc1ccc(Cl)cc1 (centres undefined) ?
Reply | -1
